assay-target: T1, Peptide-17 (cysteine pairing not given here; also: biotinylated (site not given here))
T1 peptide: IDFCLLYDWPICGR
assay-summary: ELISA, Fab on captured biotin-peptide
pEC50: −log10 of the molar value. Where no end group is shown, it is not given here.
In this section we review reported pEC50 values for a set of binders.

binder | pEC50
TBD-21 (HC F108A) (Fab, V domains shown, Fab; also called HC F108A mutant) VH: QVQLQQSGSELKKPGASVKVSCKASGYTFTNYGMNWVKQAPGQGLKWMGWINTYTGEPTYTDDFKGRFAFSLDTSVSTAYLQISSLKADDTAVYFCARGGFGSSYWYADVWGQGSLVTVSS VL: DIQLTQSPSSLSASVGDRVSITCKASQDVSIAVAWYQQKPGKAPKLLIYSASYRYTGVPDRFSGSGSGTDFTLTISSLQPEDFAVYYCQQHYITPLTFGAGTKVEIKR | 7.79
TBD-17 (HC S104A) (Fab, V domains shown, Fab; also called HC S104A mutant) VH: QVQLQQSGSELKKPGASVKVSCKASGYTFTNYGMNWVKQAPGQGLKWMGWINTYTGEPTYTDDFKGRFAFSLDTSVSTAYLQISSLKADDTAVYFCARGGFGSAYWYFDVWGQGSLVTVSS VL: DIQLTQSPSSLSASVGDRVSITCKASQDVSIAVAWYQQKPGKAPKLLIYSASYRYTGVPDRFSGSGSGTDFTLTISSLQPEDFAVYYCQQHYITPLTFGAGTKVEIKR | 8.07
TBD-6 (LC I93A) (Fab, V domains shown, Fab; also called LC I93A mutant) VH: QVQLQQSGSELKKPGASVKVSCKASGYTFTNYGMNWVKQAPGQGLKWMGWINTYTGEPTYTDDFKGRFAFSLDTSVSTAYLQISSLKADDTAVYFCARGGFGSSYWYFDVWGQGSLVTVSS VL: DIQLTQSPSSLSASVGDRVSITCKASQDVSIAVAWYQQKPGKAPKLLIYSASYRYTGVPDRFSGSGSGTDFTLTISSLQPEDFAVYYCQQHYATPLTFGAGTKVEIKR | 7.78
